systemTested: UniProt P15823
Sequence (P15823 whole entry): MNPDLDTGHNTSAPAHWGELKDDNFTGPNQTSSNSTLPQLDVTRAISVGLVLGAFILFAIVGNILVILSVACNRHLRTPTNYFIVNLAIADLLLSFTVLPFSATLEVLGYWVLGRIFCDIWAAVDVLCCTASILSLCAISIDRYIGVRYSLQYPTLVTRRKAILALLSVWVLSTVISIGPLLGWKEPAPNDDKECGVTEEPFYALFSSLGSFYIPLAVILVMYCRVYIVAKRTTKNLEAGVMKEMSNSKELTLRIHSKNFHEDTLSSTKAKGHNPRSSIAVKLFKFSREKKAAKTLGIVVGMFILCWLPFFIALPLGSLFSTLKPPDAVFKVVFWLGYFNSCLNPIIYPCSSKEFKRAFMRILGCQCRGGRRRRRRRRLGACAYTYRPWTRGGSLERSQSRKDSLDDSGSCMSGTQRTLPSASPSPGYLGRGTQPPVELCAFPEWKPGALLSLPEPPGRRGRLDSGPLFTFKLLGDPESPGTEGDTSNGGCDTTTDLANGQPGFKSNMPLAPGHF
assayOverview: Noncompetitive antagonist activity at alpha1B adrenergic receptor in Rattus norvegicus (rat) spleen assessed as inhibition of (-)-phenylephrine-induced contraction
I'd be grateful if you could share measured pKb for these entries.

# compound COc1cc2nc(N3CCN(C(=O)c4ccc(Br)o4)[C@H]4CCCC[C@@H]43)nc(N)c2cc1OC ; its pKb = 9.83

The value of pKb measured for the compound COc1cc2nc(N3CCN(C(=O)c4ccc(C(C)=O)o4)[C@H]4CCCC[C@@H]43)nc(N)c2cc1OC turned out to be 9.85

Consider COc1cc2nc(N3CCN(C(=O)c4ccc(C)o4)[C@H]4CCCC[C@@H]43)nc(N)c2cc1OC . Its measured pKb is 9.28

Entry under test: COc1ccc(C(=O)N2CCN(c3nc(N)c4cc(OC)c(OC)cc4n3)[C@H]3CCCC[C@@H]32)o1 . Its pKb was 9.71

###

Kindly state pKi for each of the entries shown.
Remember, pKi is on a log scale: it is -log10 of the molar concentration.

Given the molecule COc1ccc(C(=O)N2CCN(c3nc(N)c4cc(OC)c(OC)cc4n3)[C@H]3CCCC[C@@H]32)o1 and test system Alpha-1D adrenergic receptor (Homo sapiens), the measured pKi is 8.44

Log: Alpha-1D adrenergic receptor (Homo sapiens), molecule COc1cc2nc(N3CCN(C(=O)c4ccc(C)o4)[C@H]4CCCC[C@@H]43)nc(N)c2cc1OC , pKi = 8.32

Form field, pKi with Alpha-1D adrenergic receptor (Homo sapiens), item COc1cc2nc(N3CCN(C(=O)c4ccc(C(C)=O)o4)[C@H]4CCCC[C@@H]43)nc(N)c2cc1OC : 8.13

###

systemTested: Alpha-1B adrenergic receptor (Homo sapiens, UniProt P35368)
Sequence (P35368 whole entry): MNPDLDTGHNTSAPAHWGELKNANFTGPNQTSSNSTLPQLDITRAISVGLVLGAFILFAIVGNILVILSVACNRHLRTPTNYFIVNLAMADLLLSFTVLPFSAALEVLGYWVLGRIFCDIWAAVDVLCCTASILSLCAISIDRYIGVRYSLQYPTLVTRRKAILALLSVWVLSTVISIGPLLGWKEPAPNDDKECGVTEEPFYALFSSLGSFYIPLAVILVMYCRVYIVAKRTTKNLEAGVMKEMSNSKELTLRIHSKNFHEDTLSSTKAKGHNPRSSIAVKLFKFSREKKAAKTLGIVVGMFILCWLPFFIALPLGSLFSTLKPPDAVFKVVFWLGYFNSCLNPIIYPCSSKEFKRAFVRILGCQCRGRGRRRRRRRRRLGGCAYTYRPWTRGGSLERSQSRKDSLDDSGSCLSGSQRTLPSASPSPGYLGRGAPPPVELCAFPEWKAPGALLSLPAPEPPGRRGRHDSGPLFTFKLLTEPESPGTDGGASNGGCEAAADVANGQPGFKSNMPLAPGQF
assayOverview: Displacement of [3H]prazosin from Homo sapiens (human) alpha1B adrenergic receptor
quantityName: Ki
Remember to follow the number with its unit.

Quick note, Ki for COc1ccc(C(=O)N2CCN(c3nc(N)c4cc(OC)c(OC)cc4n3)[C@H]3CCCC[C@@H]32)o1 landed at 0.871 nM

Given item COc1cc2nc(N3CCN(C(=O)c4ccc(C)o4)[C@H]4CCCC[C@@H]43)nc(N)c2cc1OC , the value recorded as its Ki is 0.871 nM

Given item COc1cc2nc(N3CCN(C(=O)c4ccc(C(C)=O)o4)[C@H]4CCCC[C@@H]43)nc(N)c2cc1OC , the value recorded as its Ki is 1.38 nM

Short answer for COc1cc2nc(N3CCN(C(=O)c4ccc(Br)o4)[C@H]4CCCC[C@@H]43)nc(N)c2cc1OC : Ki was 0.309 nM

###

Organism: Rattus norvegicus
assayOverview: Selectivity ratio for antagonist activity at alpha1B adrenergic receptor in Rattus norvegicus (rat) spleen to antagonist activity at alpha1A adrenergic receptor in rat vas deferens
Type: tissue-based
quantityName: Selectivity ratio
Kindly provide the number alone.

The reported Selectivity ratio of the molecule COc1cc2nc(N3CCN(C(=O)c4ccc(C)o4)[C@H]4CCCC[C@@H]43)nc(N)c2cc1OC was 407

The reported Selectivity ratio of the molecule COc1ccc(C(=O)N2CCN(c3nc(N)c4cc(OC)c(OC)cc4n3)[C@H]3CCCC[C@@H]32)o1 was 724

For this molecule ( COc1cc2nc(N3CCN(C(=O)c4ccc(C(C)=O)o4)[C@H]4CCCC[C@@H]43)nc(N)c2cc1OC ), measured Selectivity ratio is 302

Entry COc1cc2nc(N3CCN(C(=O)c4ccc(Br)o4)[C@H]4CCCC[C@@H]43)nc(N)c2cc1OC ; Selectivity ratio = 199

###

systemTested: Alpha-1A adrenergic receptor (Homo sapiens, UniProt P35348)
Sequence (P35348 whole entry): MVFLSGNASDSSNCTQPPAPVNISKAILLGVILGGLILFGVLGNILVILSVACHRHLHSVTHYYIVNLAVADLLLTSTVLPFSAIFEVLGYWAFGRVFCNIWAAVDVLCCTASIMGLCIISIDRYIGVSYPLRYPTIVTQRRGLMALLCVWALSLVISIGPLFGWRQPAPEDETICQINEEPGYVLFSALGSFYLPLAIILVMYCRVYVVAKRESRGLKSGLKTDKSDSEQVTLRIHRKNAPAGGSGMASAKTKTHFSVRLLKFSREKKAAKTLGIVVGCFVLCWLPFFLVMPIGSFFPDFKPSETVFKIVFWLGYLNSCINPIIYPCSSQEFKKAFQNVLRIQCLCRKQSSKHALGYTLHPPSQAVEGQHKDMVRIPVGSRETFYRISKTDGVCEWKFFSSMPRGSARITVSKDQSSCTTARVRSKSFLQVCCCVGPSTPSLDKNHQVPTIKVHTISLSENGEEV
Please provide measured pKi for the entries that follow.
Bear in mind: pKi is minus log10 of a mol/L concentration; give just that figure.

Per the record, COc1cc2nc(N3CCN(C(=O)c4ccc(Br)o4)[C@H]4CCCC[C@@H]43)nc(N)c2cc1OC has pKi of 8.46

pKi reported for this compound COc1cc2nc(N3CCN(C(=O)c4ccc(C(C)=O)o4)[C@H]4CCCC[C@@H]43)nc(N)c2cc1OC : 7.59

###

For each of the compounds below, state its Kb.
systemTested: UniProt:P23944
Sequence (P23944 whole entry): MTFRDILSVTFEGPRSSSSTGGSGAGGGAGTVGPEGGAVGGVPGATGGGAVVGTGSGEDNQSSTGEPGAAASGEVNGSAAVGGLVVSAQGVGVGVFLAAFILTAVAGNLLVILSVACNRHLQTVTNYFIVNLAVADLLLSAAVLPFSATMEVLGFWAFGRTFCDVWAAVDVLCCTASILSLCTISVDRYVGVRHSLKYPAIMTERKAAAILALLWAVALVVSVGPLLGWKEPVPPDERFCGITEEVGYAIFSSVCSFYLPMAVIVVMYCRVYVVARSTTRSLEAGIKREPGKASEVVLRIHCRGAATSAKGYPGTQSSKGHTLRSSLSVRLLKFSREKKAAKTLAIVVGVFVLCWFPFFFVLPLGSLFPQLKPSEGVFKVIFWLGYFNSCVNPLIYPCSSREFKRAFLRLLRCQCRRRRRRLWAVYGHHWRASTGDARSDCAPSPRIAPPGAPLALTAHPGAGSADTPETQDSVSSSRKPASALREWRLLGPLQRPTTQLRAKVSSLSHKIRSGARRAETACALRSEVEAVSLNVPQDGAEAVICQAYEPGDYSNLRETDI
assayOverview: Competitive antagonist activity at alpha1D adrenergic receptor in Rattus norvegicus (rat) aorta assessed as inhibition of (-)-noradrenaline-induced contraction
conditionsUsed: read-out: pA2 (converted)
Numeric only. Scale: µM

// compound COc1cc2nc(N3CCN(C(=O)c4ccc(C(C)=O)o4)[C@H]4CCCC[C@@H]43)nc(N)c2cc1OC , assay UniProt:P23944, Kb value: 0.214

Field Kb (system: UniProt:P23944) for entry COc1cc2nc(N3CCN(C(=O)c4ccc(C)o4)[C@H]4CCCC[C@@H]43)nc(N)c2cc1OC = 0.0912

Known value: UniProt:P23944 Kb of the compound COc1cc2nc(N3CCN(C(=O)c4ccc(Br)o4)[C@H]4CCCC[C@@H]43)nc(N)c2cc1OC equals 0.0589

Entry COc1ccc(C(=O)N2CCN(c3nc(N)c4cc(OC)c(OC)cc4n3)[C@H]3CCCC[C@@H]32)o1 , tested on UniProt:P23944, has a reported Kb of 0.0891

The reported numbers originate from ChEMBL document CHEMBL3045834.
